assay: NCI Yeast Anticancer Drug Screen. Data for the cln2 rad14 strain (AID 165);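 further: 0% = growth equal to vehicle treated cultures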; conditions: S. cerevisiae cln2 rad14 strain, at 50.0 µM, active compounds read high
Compounds without any hit were thinned out: in the full panel of roughly 79,000, 15% have a hit.
Tag: 1.0 if measured growth inhibition is not below -10%, 0.0 if it is.

Is growth inhibition at least -10%? Consider NS(=O)(=O)c1cc2c(cc1Cl)NC(Cc1ccccc1)NS2(=O)=O (stereo not drawn)
1.0

Is growth inhibition at least -10%? Consider Cc1nc2c(sc(=S)n2-c2ccccc2)c2nc3ccccc3n12
1.0

Is growth inhibition at least -10%? Consider COc1c2occc2c(CC(O)C(C)(C)O)c2ccc(=O)oc12 (stereo not drawn)
1.0

Is growth inhibition at least -10%? Consider Cn1c[n+](-c2ccccc2)c([S-])n1
0.0

Is growth inhibition at least -10%? Consider CCOC(=O)C(Cc1ccccc1Cl)(Cc1ccccc1Cl)c1ccccc1
0.0

Is growth inhibition at least -10%? Consider CC(=O)c1cccc(C)n1
1.0

Is growth inhibition at least -10%? Consider COc1ccc(C(=O)NNC(=O)c2ccccc2)cc1
1.0

Is growth inhibition at least -10%? Consider CC1(C)CC23C(=O)N(c4ccccc4)C(=Nc4ccccc4)NC2=CC(C#N)=C(C#N)C3O1 (stereo not drawn)
1.0

Is growth inhibition at least -10%? Consider CCSCCOC(=S)Nc1ccccc1
1.0

Is growth inhibition at least -10%? Consider CCOC(=O)CN(c1scc(-c2ccccc2)c1C(=O)OCC)S(=O)(=O)c1ccc(C)cc1
0.0

Is growth inhibition at least -10%? Consider CCOC(=O)C(CNCc1ccccc1)C1CCCCC1 (stereo not drawn)
1.0

Is growth inhibition at least -10%? Consider CN(C)C1CS(=O)(=O)OC2=C1CCSc1ccccc12 (stereo not drawn)
0.0

Is growth inhibition at least -10%? Consider CCC(C)CCOC(=O)c1ccc(N=Cc2ccc(C=Nc3ccc(C(=O)OCCC(C)CC)cc3)cc2)cc1 (stereo not drawn)
1.0

Is growth inhibition at least -10%? Consider [N-]=[N+]=Nc1ccc(NCCCCCC(=O)ON2C(=O)CCC2=O)c([N+](=O)[O-])c1
1.0

Is growth inhibition at least -10%? Consider O=C(c1ccccc1)c1ccccc1
0.0

Is growth inhibition at least -10%? Consider N[N+]1(CCS(N)(=O)=O)CCOCC1
0.0

Is growth inhibition at least -10%? Consider CCCCC1(O)C(=O)N(c2ccccc2)N(c2ccccc2)C1=O
1.0

Is growth inhibition at least -10%? Consider CCOC(=O)CCC1(C(=O)OC)C(=O)CCCCCCCC1C(=O)OC (stereo not drawn)
1.0

Is growth inhibition at least -10%? Consider Cc1nc(N(C)C)oc(=O)c1Cc1ccccc1
1.0

Is growth inhibition at least -10%? Consider CC1OC(OC2CCc3c(O)c4c(c(O)c3C2)C(=O)c2ccccc2C4=O)CC(N)C1O (stereo not drawn)
1.0

Is growth inhibition at least -10%? Consider CCOC(=O)/C(C#N)=N\Nc1ccccc1
0.0

Is growth inhibition at least -10%? Consider O=c1cnn(C2OC(C(O)CO)C(O)C2O)c(=O)[nH]1 (stereo not drawn)
0.0

* * *

assay: NCI Yeast Anticancer Drug Screen. Data for the cln2 rad14 strain (AID 165);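 further: 0% = growth equal to vehicle treated cultures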; conditions: S. cerevisiae cln2 rad14 strain, at 50.0 µM
About 79,000 compounds went through this panel and 15% of them were active in at least one assay; those are over-represented in the sample as a whole. Calls of active or inactive are those of the source. Rule as the data show it: active = growth inhibition above about 70%; inactive = the rest.
The reply should be one of these categories: 1 = active, 0 = inactive

Entry O=C(NCCCBr)Nc1cccc2c1CCCC2 : call = ?
0

Entry COc1ccc(/C=C2\N=C(c3cccc(Cl)c3)OC2=O)cc1OC : call = ?
0

Entry CC(=O)O[C@]1(C(C)=O)CC[C@H]2[C@@H]3C[C@H](C)C4=CC(=O)C=C[C@]4(C)[C@@]3(F)[C@@H](O)C[C@@]21C : call = ?
0

Entry CC(C)C(=O)Nc1ccc([N+](=O)[O-])cc1 : call = ?
0

Entry CC1=CN(c2ccccc2)S2=C1c1sc3c(c1N2c1ccc(Br)cc1)CCCC3 (stereo not given) : call = ?
0

Entry CCCCCCCCC1CC(=O)OC1=O (stereo not given) : call = ?
0

Entry O=c1[nH]c(=O)c2nc3cc(-c4ccc5nc6[nH]c(=O)[nH]c(=O)c6nc5c4)ccc3nc2[nH]1 : call = ?
0

Entry CN(C)CCCNC(=O)c1cc(NC(=O)c2cc(NC(=O)c3cc(NC(=O)CCCn4ccc(CO)c4CO)cn3C)cn2C)cn1C : call = ?
0

Entry NOCc1nnc(Nc2ccccc2)s1 : call = ?
0

Entry C=C1C(=O)C=C2C=C3C(=O)C(C)(C)C[C@]3(O)C12C (stereo not given in full) : call = ?
1
